For each entry below, report its quenching association constant Ka value.
Study System: apo-human transferrin (apo-hTf) (Homo sapiens, UniProt P02787)
Sequence (P02787 20-698): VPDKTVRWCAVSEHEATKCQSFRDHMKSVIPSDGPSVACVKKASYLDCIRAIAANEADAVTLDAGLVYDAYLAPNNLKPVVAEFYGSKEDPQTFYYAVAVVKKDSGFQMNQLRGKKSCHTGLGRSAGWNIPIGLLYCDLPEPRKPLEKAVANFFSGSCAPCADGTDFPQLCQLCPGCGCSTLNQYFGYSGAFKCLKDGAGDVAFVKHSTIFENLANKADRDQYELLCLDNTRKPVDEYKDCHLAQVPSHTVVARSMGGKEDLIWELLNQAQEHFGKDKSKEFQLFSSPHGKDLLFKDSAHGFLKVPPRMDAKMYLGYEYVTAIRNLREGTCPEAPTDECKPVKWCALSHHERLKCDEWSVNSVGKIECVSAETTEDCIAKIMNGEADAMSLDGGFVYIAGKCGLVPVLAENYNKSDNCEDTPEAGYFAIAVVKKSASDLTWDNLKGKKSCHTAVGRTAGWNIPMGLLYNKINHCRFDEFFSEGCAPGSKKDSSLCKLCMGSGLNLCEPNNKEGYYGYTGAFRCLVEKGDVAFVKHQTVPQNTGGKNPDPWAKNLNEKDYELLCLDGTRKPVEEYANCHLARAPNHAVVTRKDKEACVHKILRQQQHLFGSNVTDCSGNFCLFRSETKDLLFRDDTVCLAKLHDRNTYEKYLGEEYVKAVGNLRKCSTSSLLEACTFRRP
Protocol Details: Fluorescence quenching of apo-hTf
Assay type: binding
Condition Label: 317 K, pH 7.4, modified Stern-Volmer
One number for each entry, in M⁻¹.

Consider the following items and state reported quenching association constant Ka for each.
1. [Cl-].[Cl-].[Mo+4].c1cc[cH-]c1.c1cc[cH-]c1
2. [Cl-].[Cl-].[Hf+4].c1cc[cH-]c1.c1cc[cH-]c1
3. N.N.[Cl][Pt][Cl] [(NH3)2Pt(II)Cl2, cis-diamminedichloroplatinum (II), reference compound]
4. [Cl-].[Cl-].[V+4].c1cc[cH-]c1.c1cc[cH-]c1
5. [Cl][Zr+2][Cl].c1cc[cH-]c1.c1cc[cH-]c1

[9500, 7000, 1600, 159800, 1600]

# batch: return quenching association constant Ka for each of the 3 compounds below
1. C1CCCC1.C1CCCC1.[Cl][Nb][Cl]
2. C1CCCC1.C1CCCC1.[Cl][W][Cl]
3. [Cl-].[Cl-].[Ti+4].c1cc[cH-]c1.c1cc[cH-]c1 [Cp2TiCl2, titanocene dichloride]

1: 562300; 2: 3200; 3: 3100

----------
Study System: apo-human transferrin (apo-hTf) (Homo sapiens)
Protocol Details: Far-UV circular dichroism titration of apo-hTf, secondary structure content
Condition Label: compound concentration 0.8 (M)
Readout Name: random coil content of apo-hTf (%)
Answers are plain numbers, in %.

These recorded examples may help you get a feel for the data.
Per the record, N.N.[Cl][Pt][Cl] [(NH3)2Pt(II)Cl2, cis-diamminedichloroplatinum (II), reference compound] has random coil content of apo-hTf of 33.9

# molecule [Cl-].[Cl-].[Ti+4].c1cc[cH-]c1.c1cc[cH-]c1 [Cp2TiCl2, titanocene dichloride] ; its random coil content of apo-hTf = 33.8

Per the records, this molecule ( [Cl-].[Cl-].[Hf+4].c1cc[cH-]c1.c1cc[cH-]c1 ) has random coil content of apo-hTf equal to 33.8

Form field random coil content of apo-hTf, entry C1CCCC1.C1CCCC1.[Cl][W][Cl] : 33.8

For every listed record, write down its random coil content of apo-hTf.
1. C1CCCC1.C1CCCC1.[Cl][Nb][Cl]
2. [Cl][Zr+2][Cl].c1cc[cH-]c1.c1cc[cH-]c1
3. [Cl-].[Cl-].[Mo+4].c1cc[cH-]c1.c1cc[cH-]c1

34
33.9
34

Query [Cl-].[Cl-].[V+4].c1cc[cH-]c1.c1cc[cH-]c1 yields random coil content of apo-hTf of 33.9

----------
Study System: apo-human transferrin (apo-hTf) (Homo sapiens)
Protocol Details: Far-UV circular dichroism titration of apo-hTf, secondary structure content
Condition Label: compound concentration 1.2 (M)
Please provide measured α-helix content of apo-hTf for the entries that follow.
Numbers only, in %.

Solved cases (2 shown):
// [Cl-].[Cl-].[Mo+4].c1cc[cH-]c1.c1cc[cH-]c1 : α-helix content of apo-hTf value = 27.6

[Cl-].[Cl-].[V+4].c1cc[cH-]c1.c1cc[cH-]c1 yielded α-helix content of apo-hTf of 27.2

Next:
Entry [Cl-].[Cl-].[Ti+4].c1cc[cH-]c1.c1cc[cH-]c1 [Cp2TiCl2, titanocene dichloride] , α-helix content of apo-hTf reported as 29
